molecular target: Hepatocyte growth factor receptor (Homo sapiens); experiment: Inhibition of human recombinant c-Met expressed in insect cell-baculovirus expression system
Sequence (P08581 whole entry): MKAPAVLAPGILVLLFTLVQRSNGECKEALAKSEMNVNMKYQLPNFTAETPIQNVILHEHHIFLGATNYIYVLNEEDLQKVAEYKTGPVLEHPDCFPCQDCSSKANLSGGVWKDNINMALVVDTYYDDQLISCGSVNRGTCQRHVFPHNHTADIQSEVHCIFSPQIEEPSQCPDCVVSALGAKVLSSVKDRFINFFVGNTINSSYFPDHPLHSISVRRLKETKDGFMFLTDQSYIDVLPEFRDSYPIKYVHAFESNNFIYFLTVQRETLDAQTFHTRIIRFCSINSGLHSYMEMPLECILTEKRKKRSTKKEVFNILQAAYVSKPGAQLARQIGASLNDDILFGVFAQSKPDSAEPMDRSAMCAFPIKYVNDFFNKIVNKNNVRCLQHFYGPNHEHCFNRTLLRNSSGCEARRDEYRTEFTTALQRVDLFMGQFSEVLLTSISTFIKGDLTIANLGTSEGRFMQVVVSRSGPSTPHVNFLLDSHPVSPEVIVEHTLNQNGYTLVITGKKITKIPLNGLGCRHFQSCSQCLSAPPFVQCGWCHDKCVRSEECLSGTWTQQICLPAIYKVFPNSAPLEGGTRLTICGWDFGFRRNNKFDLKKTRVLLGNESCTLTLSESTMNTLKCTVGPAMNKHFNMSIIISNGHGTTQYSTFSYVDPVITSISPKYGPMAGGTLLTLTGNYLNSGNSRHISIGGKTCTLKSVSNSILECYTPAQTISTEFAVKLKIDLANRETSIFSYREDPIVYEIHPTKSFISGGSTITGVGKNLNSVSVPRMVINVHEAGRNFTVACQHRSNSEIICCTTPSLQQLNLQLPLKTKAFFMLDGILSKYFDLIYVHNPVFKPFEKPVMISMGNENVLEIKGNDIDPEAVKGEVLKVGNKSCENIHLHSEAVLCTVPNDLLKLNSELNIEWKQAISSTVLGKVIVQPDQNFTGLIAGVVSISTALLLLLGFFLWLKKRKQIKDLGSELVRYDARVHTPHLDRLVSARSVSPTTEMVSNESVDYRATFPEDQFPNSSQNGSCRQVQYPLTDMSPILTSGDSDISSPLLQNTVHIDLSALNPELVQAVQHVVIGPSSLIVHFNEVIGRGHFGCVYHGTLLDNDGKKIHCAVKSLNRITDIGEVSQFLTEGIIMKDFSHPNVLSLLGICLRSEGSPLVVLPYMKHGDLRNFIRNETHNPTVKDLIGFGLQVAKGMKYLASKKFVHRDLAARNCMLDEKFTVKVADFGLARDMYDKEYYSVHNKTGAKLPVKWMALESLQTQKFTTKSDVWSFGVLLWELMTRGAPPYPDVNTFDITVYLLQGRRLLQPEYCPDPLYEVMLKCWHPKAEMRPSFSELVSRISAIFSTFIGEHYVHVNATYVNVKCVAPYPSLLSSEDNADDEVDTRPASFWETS
pIC50: −log10 of the molar value.
OBSERVATION TYPE: pIC50

Entry O=C(Cc1ccc(F)cc1)NC(=O)Nc1ccc(Oc2ncnn3ccc(Cl)c23)c(F)c1 ; pIC50 = < 5.70

====

OBSERVATION TYPE: pIC50
// returns pIC50 (minus log10 of molar concentration), number only

Field pIC50 (High affinity nerve growth factor receptor (Homo sapiens, UniProt P04629)), entry NC1CCN(Cc2ccn3ncnc(Oc4ccc(NC(=O)NC(=O)Cc5ccc(F)cc5)cc4F)c23)CC1 : 6.70

====

assay: Permeability across human Caco-2 cells; assay type: ADME, cell-based; conditions: read-out: permeability
OBSERVATION TYPE: Papp

Entry NC1CCN(Cc2ccn3ncnc(Oc4ccc(NC(=O)NC(=O)Cc5ccc(F)cc5)cc4F)c23)CC1 ; Papp = < 1.5 ×10⁻⁶ cm/s

====

assay: Inhibition of PKC
OBSERVATION TYPE: IC50

Entry NC1CCN(Cc2ccn3ncnc(Oc4ccc(NC(=O)NC(=O)Cc5ccc(F)cc5)cc4F)c23)CC1 ; IC50 = > 5 µM

====

pIC50: −log10 of the molar value.
OBSERVATION TYPE: pIC50

Field pIC50 (Vascular endothelial growth factor receptor 2 (Homo sapiens)), entry NC1CCN(Cc2ccn3ncnc(Oc4ccc(NC(=O)NC(=O)Cc5ccc(F)cc5)cc4F)c23)CC1 : < 5.30

====

molecular target: MAP kinase-activated protein kinase 2 (Homo sapiens, UniProt P49137); assay: Inhibition of MK2
Sequence (P49137 whole entry): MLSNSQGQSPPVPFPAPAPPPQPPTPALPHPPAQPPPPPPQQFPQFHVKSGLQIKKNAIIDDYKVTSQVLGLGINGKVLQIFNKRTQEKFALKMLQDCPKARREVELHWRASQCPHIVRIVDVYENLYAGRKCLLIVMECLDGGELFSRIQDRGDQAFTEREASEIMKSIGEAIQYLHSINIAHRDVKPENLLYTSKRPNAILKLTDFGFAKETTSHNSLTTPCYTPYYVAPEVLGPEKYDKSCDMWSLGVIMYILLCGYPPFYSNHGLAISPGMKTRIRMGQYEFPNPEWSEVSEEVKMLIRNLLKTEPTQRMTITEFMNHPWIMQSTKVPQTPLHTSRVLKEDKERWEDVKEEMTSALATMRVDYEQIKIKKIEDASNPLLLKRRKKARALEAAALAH
OBSERVATION TYPE: IC50

Entry NC1CCN(Cc2ccn3ncnc(Oc4ccc(NC(=O)NC(=O)Cc5ccc(F)cc5)cc4F)c23)CC1 ; IC50 = > 5 µM

====

assay: Bioavailability in mouse at 20 mg/kg, ip; type: ADME, organism-based; details: in vivo
OBSERVATION TYPE: bioavailability (%)
Express it in %; write the number only.

Entry NC1CCN(Cc2ccn3ncnc(Oc4ccc(NC(=O)NC(=O)Cc5ccc(F)cc5)cc4F)c23)CC1 ; bioavailability = 81

====

assay: Aqueous solubility at pH 6.5; format: physicochemical
OBSERVATION TYPE: solubility (µg/mL)
Express it in µg/mL; write the number only.

Entry O=C(Cc1ccc(F)cc1)NC(=O)Nc1ccc(Oc2ncnn3ccc(CN4CCNCC4)c23)c(F)c1 ; solubility = 290

====

OBSERVATION TYPE: IC50

Field IC50 (Insulin-like growth factor 1 receptor (Homo sapiens)), entry NC1CCN(Cc2ccn3ncnc(Oc4ccc(NC(=O)NC(=O)Cc5ccc(F)cc5)cc4F)c23)CC1 : > 5 µM
